All values here come from ChEMBL document CHEMBL1201862.

# Tested on: COLO 205
# Assay info: NCI tumour cell line growth inhibition, 48 h
Activity calls are given as the source filed them. No stated cut-off is given here; in the data, active = GI50 up to about 1.1 µM and inactive = higher.
Reported GI50 values for the following compounds.

Consider the following illustrative entries.
N#CC(NC12CC3CC(CC(C3)C1)C2)c1ccc2c(c1)OCO2 (configuration not stated) ... > 100 µM (inactive)
COc1cc(C)c(O)c(C(=O)O)c1 ... > 100 µM (inactive)
Cc1ccc(/C=C2\N=C(N3CCOCC3)NC2=O)cc1 ... > 100 µM (inactive)

Ask | Any idea what its GI50 is? The compound is CC(N)C(C)c1ccccc1 (configuration not stated)
Reply | > 100 µM (inactive)

Ask | # get_value(readout='GI50', item= `CCOC(=O)c1sc(Nc2cc(Cl)ccc2Cl)nc1C` )
Reply | > 100 µM (inactive)

Ask | Please give the measured GI50 for this compound: N#CC(/N=N/c1ccc(Cl)cc1)c1nc2ccccc2o1 (configuration not stated)
Reply | 22.3 µM (inactive)

Ask | Fill in the blank: the reported GI50 of `COc1ccc(/C=C/C=C2C(=O)NC(=S)NC2=O)cc1` is ____.
Reply | 3.83 µM (inactive)

Ask | Name the reported GI50 value associated with the compound `O=S1(=O)C(c2ccccc2)=C(O)c2ccccc21`
Reply | > 100 µM (inactive)

Ask | For the compound shown here, `COC(=O)C(C#N)=C1c2ccccc2Oc2ccccc21` , give the reported GI50.
Reply | 92 µM (inactive)

Ask | Endpoint output: GI50 of `Nc1ccccc1C#CC(=O)c1cccc(C(F)(F)F)c1` . Value?
Reply | 1.89 µM (inactive)

Ask | What value of measured GI50 is listed for `Oc1cc(-c2cccc(OC(F)(F)F)c2)nc2cc3c(cc12)OCO3` ?
Reply | 1.24 µM (inactive)

Ask | GI50 lookup needed for `CN(C)CCCCN1c2ccccc2Sc2ccc(C(=O)c3ccccc3)cc21` , thanks.
Reply | 1.64 µM (inactive)
